The measurements presented in this section are drawn from ChEMBL document CHEMBL4007490.

Test: Selectivity index, ratio of CC50 for human HepG2A16 cells to IC50 for axenic amastigote form of Leishmania infantum MHOM/MA/67/ITMAP-263
Type: toxicity
Details: read-out: Ratio CC50/IC50
Each item that follows carries a reported selectivity ratio.

- querySmiles: "Cc1c(/C=N/NC(=O)c2ccccc2)[n+]([O-])c2ccccc2[n+]1[O-]"
  selectivity ratio: 0.68
- querySmiles: "Cc1c(C)[n+]([O-])c2cc(Cl)ccc2[n+]1[O-]"
  selectivity ratio: "< 2.28"
- querySmiles: "Cc1c(C)[n+]([O-])c2ccccc2[n+]1[O-]"
  selectivity ratio: "< 3.21"
- querySmiles: "Cc1c(/C=N/Nc2ccc(C(=O)O)cc2)[n+]([O-])c2ccccc2[n+]1[O-]"
  selectivity ratio: "< 3.72"
- querySmiles: "Cc1c(/C=N/NC(=O)c2ccncc2)[n+]([O-])c2ccccc2[n+]1[O-]"
  selectivity ratio: "< 0.9"
- querySmiles: "COc1ccc2c(c1)[n+]([O-])c(C)c(C)[n+]2[O-]"
  selectivity ratio: "< 7.44"
- querySmiles: "Cc1c(/C=N/Nc2ccc(Cl)c(Cl)c2)[n+]([O-])c2ccccc2[n+]1[O-]"
  selectivity ratio: "< 5.5"
- querySmiles: "Cc1c(/C=N/Nc2c(Cl)cc(Cl)cc2Cl)[n+]([O-])c2cc(Cl)ccc2[n+]1[O-]"
  selectivity ratio: "< 0.12"
- querySmiles: "COc1ccc(C(=O)N/N=C/c2c(C)[n+]([O-])c3ccccc3[n+]2[O-])cc1"
  selectivity ratio: "< 0.66"
- querySmiles: "Cc1c(/C=N/NC(=O)c2ccc(Cl)cc2)[n+]([O-])c2ccccc2[n+]1[O-]"
  selectivity ratio: 0.54
- querySmiles: "Cc1ccc(S(=O)(=O)N/N=C/c2c(C)[n+]([O-])c3ccccc3[n+]2[O-])cc1"
  selectivity ratio: 4.51
- querySmiles: "Cc1c(/C=N/Nc2ccccc2)[n+]([O-])c2ccccc2[n+]1[O-]"
  selectivity ratio: "< 0.35"
- querySmiles: "Cc1c(/C=N/Nc2cccc(Cl)c2)[n+]([O-])c2ccccc2[n+]1[O-]"
  selectivity ratio: "< 0.47"
- querySmiles: "COc1ccc2c(c1)[n+]([O-])c(/C=N/Nc1c(Cl)cc(Cl)cc1Cl)c(C)[n+]2[O-]"
  selectivity ratio: "< 2.08"
- querySmiles: "Cc1c(C(F)(F)F)[n+]([O-])c2ccccc2[n+]1[O-]"
  selectivity ratio: 0.05
- querySmiles: "Cc1c(/C=N/Nc2c(Cl)cc(Cl)cc2Cl)[n+]([O-])c2ccccc2[n+]1[O-]"
  selectivity ratio: "< 1.24"
- querySmiles: "CC(=O)N/N=C/c1c(C)[n+]([O-])c2ccccc2[n+]1[O-]"
  selectivity ratio: "< 0.87"
